Listed here: items and their measured IFN gamma levels pg/mL (MLR).
# experimental_system: human PD-1 (human) (UniProt Q15116)
# Sequence (Q15116 25-288): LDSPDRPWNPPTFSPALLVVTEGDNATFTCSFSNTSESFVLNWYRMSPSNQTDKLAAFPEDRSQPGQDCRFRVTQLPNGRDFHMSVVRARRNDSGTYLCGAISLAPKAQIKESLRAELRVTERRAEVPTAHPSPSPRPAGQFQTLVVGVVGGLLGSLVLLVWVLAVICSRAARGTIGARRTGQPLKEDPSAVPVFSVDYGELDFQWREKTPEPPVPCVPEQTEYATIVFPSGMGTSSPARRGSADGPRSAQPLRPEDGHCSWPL
recorded_endpoint: IFN gamma levels pg/mL (MLR) (pg/mL)

>>> experimental_value("variant PD-L2 IgV H15Q/S39I/E44D/Q72H/V75G/R76G/Q82R/V89D Fc fusion (Fc fusion) LFTVTVPKELYIIEQGSNVTLECNFDTGSHVNLGAITAILQKVDNDTSPHRERATLLEEQLPLGKASFHIPHVQGGDEGQYRCIIIYGDAWDYKYLTLKVKA")
941
>>> experimental_value("variant PD-L2 IgV H15Q Fc fusion (Fc fusion) LFTVTVPKELYIIEQGSNVTLECNFDTGSHVNLGAITASLQKVENDTSPHRERATLLEEQLPLGKASFHIPQVQVRDEGQYQCIIIYGVAWDYKYLTLKVKA")
1820
